assay: in vitro; type: in vitro ADME, human; settings: human, microsomes; HLM 0.50 mg/mL, NADPH 1 mM, 1 μM compound, pH 7.4, 37° C., 60 min; read-out: half-life (t1/2)

{"columns": ["compound", "half-life, min"],
 "data": [
  ["C[C@H]1C[C@H](C)N1C(=O)[C@@H]1C=C2c3cccc4[nH]cc(c34)C[C@H]2N(Cc2ccccc2)C1", 14.3],
  ["CCN(CC)C(=O)[C@@H]1C=C2c3cccc4[nH]cc(c34)C[C@H]2N(Cc2ccc3ccccc3c2)C1", 31.6],
  ["CCN(CC)C(=O)[C@@H]1C=C2c3cccc4[nH]cc(c34)C[C@H]2N(Cc2ccccc2C)C1", 16],
  ["CCN(CC)C(=O)[C@@H]1C=C2c3cccc4[nH]cc(c34)C[C@H]2N(CC2CCCCC2)C1", 13.3],
  ["[2H]C([2H])(c1cccc(OC)c1)N1C[C@H](C(=O)N(CC)CC)C=C2c3cccc4[nH]cc(c34)C[C@H]21", 10.6],
  ["CCN(C)C(=O)[C@@H]1C=C2c3cccc4[nH]cc(c34)C[C@H]2N(Cc2ccccc2)C1", 14.6],
  ["CCN(C)C(=O)[C@H]1C=C2c3cccc4[nH]cc(c34)C[C@H]2N(Cc2ccccc2)C1 [Compound 85a]", 8.9]
]}

----------
assay: in vitro; format: in vitro ADME, human; conditions: human, microsomes; HLM 0.50 mg/mL, NADPH 1 mM, 1 μM compound, pH 7.4, 37° C., 60 min; read-out: half-life (t1/2)
Listed below: half-life values for each entry.
endpoint: half-life (min)

{"columns": ["chem.smiles", "endpoint", "recorded.result"],
 "data": [
  ["CCN(CC)C(=O)[C@@H]1C=C2c3cccc4[nH]cc(c34)C[C@H]2N(Cc2ccc(C)cc2)C1", "half-life", 21.8],
  ["CCN(CC)C(=O)[C@@H]1C=C2c3cccc4[nH]cc(c34)C[C@H]2N(CC2CCCC2)C1", "half-life", 9.9],
  ["CCN(CC)C(=O)[C@@H]1C=C2c3cccc4[nH]cc(c34)C[C@H]2N(Cc2ccc(F)c(F)c2)C1", "half-life", 18.7],
  ["CCN(CC)C(=O)[C@@H]1C=C2c3cccc4[nH]cc(c34)C[C@H]2N(Cc2ccc(Cl)cc2)C1", "half-life", 21.3]
]}

----------
assay: in vitro; type: in vitro ADME, human; details: human, microsomes; HLM 0.50 mg/mL, NADPH 1 mM, 1 μM compound, pH 7.4, 37° C., 60 min; read-out: Intrinsic clearance (Clint)
Classify: met when microsomal CLint is strictly less than 100 µL/min/mg; not met when microsomal CLint is not.

{"columns": ["compound", "label.class"],
 "data": [
  ["CCN(CC)C(=O)[C@@H]1C=C2c3cccc4[nH]cc(c34)C[C@H]2N(Cc2ccc(F)c(OC)c2)C1 [Compound 60]", "met"],
  ["CCN(C)C(=O)[C@@H]1C=C2c3cccc4[nH]cc(c34)C[C@H]2N(Cc2ccccc2)C1 [Compound 85]", "met"],
  ["CCN(CC)C(=O)[C@@H]1C=C2c3cccc4[nH]cc(c34)C[C@H]2N(Cc2ccccc2)C1 [Compound 82]", "not met"],
  ["CCN(CC)C(=O)[C@@H]1C=C2c3cccc4[nH]cc(c34)C[C@H]2N(Cc2cccc(F)c2)C1 [Compound 52]", "met"],
  ["CC[C@@H](C)NC(=O)[C@@H]1C=C2c3cccc4[nH]cc(c34)C[C@H]2N(Cc2cccc(OC)c2)C1 [Compound 95]", "not met"],
  ["[2H]C([2H])(c1cccc(OC)c1)N1C[C@H](C(=O)N(CC)CC)C=C2c3cccc4[nH]cc(c34)C[C@H]21 [Compound 68]", "not met"],
  ["CCN(CC)C(=O)[C@@H]1C=C2c3cccc4[nH]cc(c34)C[C@H]2N(Cc2ccc(F)cc2)C1 [Compound 49]", "met"]
]}
